Source listed as ChEMBL document CHEMBL4765309.

Here, each record is paired with measured viability at 24 h, 10 µM data.
experiment: Cytotoxicity against human U-87 MG cells assessed as cell viability at 10 uM incubated for 24 hrs by MTT assay; format: cell-based, U-87MG ATCC; conditions: read-out: Activity

The examples below pair each entry with its known result.
[[record]]
chem_smiles = "COc1ccccc1CNCCCCCCn1ccc(=O)c(OCc2ccccc2)c1C"
result = "> 75%"

[[record]]
chem_smiles = "Cc1c(OCc2ccccc2)c(=O)ccn1CCCCCCNc1ccnc(NCc2ccccc2)n1"
result = "> 75%"

[[record]]
chem_smiles = "Cc1c(O)c(=O)ccn1CCCCCCNCc1ccccc1"
result = "> 75%"

[[record]]
chem_smiles = "Cc1c(OCc2ccccc2)c(=O)ccn1CCCCNCc1ccccc1"
result = "> 75%"

[[record]]
chem_smiles = "Cc1c(OCc2ccccc2)c(=O)ccn1CCCCCCNc1ccccn1"
result = "> 75%"


// returns reported viability at 24 h, 10 µM for input Cc1c(OCc2ccccc2)c(=O)ccn1CCCCCCNc1nccc(Cl)n1
> 75%

// returns reported viability at 24 h, 10 µM for input Cc1c(O)c(=O)ccn1CCCCCCNc1ccnc(NCc2ccccc2)n1
> 75%

// returns reported viability at 24 h, 10 µM for input COc1ccccc1CNCCCCCCn1ccc(=O)c(O)c1C
> 75%

// returns reported viability at 24 h, 10 µM for input Cc1c(OCc2ccccc2)c(=O)ccn1CCCCCCNCc1ccccc1
> 75%

====

biological target: Acetylcholinesterase (Electrophorus electricus, UniProt O42275)
Sequence (O42275 whole entry): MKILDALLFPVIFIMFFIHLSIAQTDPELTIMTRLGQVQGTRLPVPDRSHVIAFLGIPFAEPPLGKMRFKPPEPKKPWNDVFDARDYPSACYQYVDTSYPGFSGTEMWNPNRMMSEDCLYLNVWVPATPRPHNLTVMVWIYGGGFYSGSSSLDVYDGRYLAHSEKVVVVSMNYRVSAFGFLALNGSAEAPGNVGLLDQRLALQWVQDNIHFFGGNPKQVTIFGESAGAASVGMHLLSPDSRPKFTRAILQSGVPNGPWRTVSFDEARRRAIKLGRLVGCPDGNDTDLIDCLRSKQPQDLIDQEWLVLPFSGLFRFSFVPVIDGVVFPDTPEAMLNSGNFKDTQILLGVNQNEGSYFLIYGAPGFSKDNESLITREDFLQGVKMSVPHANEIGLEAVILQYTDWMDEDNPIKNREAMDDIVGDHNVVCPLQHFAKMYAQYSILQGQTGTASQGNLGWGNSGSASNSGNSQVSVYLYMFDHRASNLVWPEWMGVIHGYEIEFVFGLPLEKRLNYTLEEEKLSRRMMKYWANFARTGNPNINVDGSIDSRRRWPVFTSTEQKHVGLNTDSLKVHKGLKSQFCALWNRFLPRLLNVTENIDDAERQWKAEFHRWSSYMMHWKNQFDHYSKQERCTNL
experimental-endpoint: pKi
For clarity, pKi is expressed as the negative log10 of concentration in mol/L.

[[record]]
chem_smiles = "Cc1c(O)c(=O)ccn1CCCCCCNCc1ccccc1"
experimental_endpoint = "pKi"
measured_number = 5.86


Under Acetylcholinesterase (Electrophorus electricus, UniProt O42275): pKi value of Cc1c(OCc2ccccc2)c(=O)ccn1CCCCCCNCc1ccccc1 ?
6.10

Under Acetylcholinesterase (Electrophorus electricus, UniProt O42275): pKi value of COc1ccccc1CNCCCCCCn1ccc(=O)c(O)c1C ?
5.87

Under Acetylcholinesterase (Electrophorus electricus, UniProt O42275): pKi value of COc1ccccc1CNCCCCCCn1ccc(=O)c(OCc2ccccc2)c1C ?
5.55

====

Entries with reported Ki on Cholinesterase (Equus caballus, UniProt P81908)
Sequence (P81908 whole entry): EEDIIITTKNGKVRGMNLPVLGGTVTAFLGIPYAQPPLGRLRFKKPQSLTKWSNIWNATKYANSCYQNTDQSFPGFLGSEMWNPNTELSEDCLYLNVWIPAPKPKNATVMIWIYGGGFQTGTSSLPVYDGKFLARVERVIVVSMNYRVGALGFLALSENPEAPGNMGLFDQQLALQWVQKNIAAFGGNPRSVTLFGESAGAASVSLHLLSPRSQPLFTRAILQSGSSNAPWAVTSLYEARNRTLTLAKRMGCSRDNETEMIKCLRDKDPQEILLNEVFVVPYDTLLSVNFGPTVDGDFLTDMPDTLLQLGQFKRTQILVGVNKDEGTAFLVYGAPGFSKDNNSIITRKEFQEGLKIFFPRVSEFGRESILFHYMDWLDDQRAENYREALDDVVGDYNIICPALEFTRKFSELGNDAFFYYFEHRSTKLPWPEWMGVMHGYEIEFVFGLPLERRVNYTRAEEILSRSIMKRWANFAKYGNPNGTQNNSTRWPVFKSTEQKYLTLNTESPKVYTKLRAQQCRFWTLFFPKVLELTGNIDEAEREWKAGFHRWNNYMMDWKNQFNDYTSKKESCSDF
// units = µM; emit number, no label

The examples below pair each entry with its known result.
[[record]]
chem_smiles = "Cc1c(O)c(=O)ccn1CCCCCCNc1ccnc(NCc2ccccc2)n1"
target_or_test_system = "Cholinesterase (Equus caballus, UniProt P81908)"
unit = "µM"
measured_number = 0.92

[[record]]
chem_smiles = "COc1ccccc1CNCCCCCCn1ccc(=O)c(OCc2ccccc2)c1C"
target_or_test_system = "Cholinesterase (Equus caballus, UniProt P81908)"
unit = "µM"
measured_number = 0.91

[[record]]
chem_smiles = "Cc1c(OCc2ccccc2)c(=O)ccn1CCCCNCc1ccccc1"
target_or_test_system = "Cholinesterase (Equus caballus, UniProt P81908)"
unit = "µM"
measured_number = 0.45

[[record]]
chem_smiles = "Cc1c(OCc2ccccc2)c(=O)ccn1CCCCCCNc1ccccn1"
target_or_test_system = "Cholinesterase (Equus caballus, UniProt P81908)"
unit = "µM"
measured_number = 0.182

[[record]]
chem_smiles = "Cc1c(OCc2ccccc2)c(=O)ccn1CCCCCCNCc1ccccc1"
target_or_test_system = "Cholinesterase (Equus caballus, UniProt P81908)"
unit = "µM"
measured_number = 2.36


// returns reported Ki for input Cc1c(OCc2ccccc2)c(=O)ccn1CCCCCCNc1nccc(Cl)n1
1.08

// returns reported Ki for input Cc1c(OCc2ccccc2)c(=O)ccn1CCCCCCNc1ccnc(NCc2ccccc2)n1
0.258
